Target: isolated recombinant JAK1 kinase domain (Homo sapiens (Human), UniProt P23458)
Sequence (P23458 875-1153): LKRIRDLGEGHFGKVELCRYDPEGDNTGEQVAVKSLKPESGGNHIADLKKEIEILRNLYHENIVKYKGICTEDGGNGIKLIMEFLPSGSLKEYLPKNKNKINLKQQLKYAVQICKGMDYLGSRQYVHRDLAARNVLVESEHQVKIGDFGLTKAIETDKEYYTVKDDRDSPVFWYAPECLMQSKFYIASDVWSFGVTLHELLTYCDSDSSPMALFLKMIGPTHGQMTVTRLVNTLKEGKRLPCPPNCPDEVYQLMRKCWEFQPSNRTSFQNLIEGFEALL
Experiment: JAK1 enzyme assay (Caliper LabChip, peptide phosphorylation)
Type: biochemical
Settings: isolated recombinant JAK1 kinase domain, 25 μM ATP
pKi: −log10 of the molar value. Counter-ions that a name gives are not always drawn.
ATTRIBUTE_MEASURED: pKi

[P] CN1CCCN(C(=O)Cn2cc(NC(=O)c3cnn4cccnc34)c(-c3cc(Cl)ccc3OC(F)F)n2)CC1 [Example 239]
[Q] Cc1cnc2c(C(=O)Nc3cn(CC(=O)N4C[C@H]5CN(C)C[C@H]5C4)nc3-c3cc(Cl)ccc3OC(F)F)cnn2c1 [Example 8, hydrochloride]
[R] N#CC1CN(C2CCN(C(=O)Cn3cc(NC(=O)c4cnn5cccnc45)c(-c4cc(Cl)ccc4OC(F)F)n3)CC2)C1 [Example 446]
From the items above, give an ordering by pKi that starts at the lowest reported number. Quick reminder: the answer is the labels in the order asked.
Q, P, R

---

Molecular target: isolated recombinant JAK2 kinase domain (Homo sapiens (Human), UniProt O60674)
Sequence (O60674 849-1124): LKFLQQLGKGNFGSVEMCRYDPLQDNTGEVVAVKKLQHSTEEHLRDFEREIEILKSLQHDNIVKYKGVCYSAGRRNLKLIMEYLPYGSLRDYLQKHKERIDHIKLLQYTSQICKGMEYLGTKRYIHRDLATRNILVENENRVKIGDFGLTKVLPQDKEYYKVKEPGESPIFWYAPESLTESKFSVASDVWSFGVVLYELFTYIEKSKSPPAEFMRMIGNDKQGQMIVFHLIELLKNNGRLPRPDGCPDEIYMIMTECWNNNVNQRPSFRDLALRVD
Experiment: JAK2 enzyme assay (Caliper LabChip, peptide phosphorylation)
Format: biochemical
Details: 25 μM ATP
ATTRIBUTE_MEASURED: Ki (nM)

N#CC1CCN(C2CCN(C(=O)Cn3cc(NC(=O)c4cnn5cccnc45)c(-c4cc(Cl)ccc4OC(F)F)n3)CC2)CC1 [Example 462]; 0.86
O=C(Nc1cn(CC(=O)N2CCN(CC3CC3)CC2)nc1-c1cc(Cl)ccc1OC(F)F)c1cnn2cccnc12 [Example 374]; 0.88

[P] CC1(O)CCN(C(=O)Cn2cc(NC(=O)c3cnn4cccnc34)c(-c3cc(Cl)ccc3OC(F)F)n2)CC1 [Example 280]
[Q] CS(=O)(=O)CCN1CCN(C(=O)Cn2cc(NC(=O)c3cnn4cccnc34)c(-c3cc(Cl)ccc3OC(F)F)n2)CC1 [Example 232]
[R] CS(=O)(=O)CCCN1CCC(n2cc(NC(=O)c3c(N)nn4cccnc34)c(-c3cc(Cl)ccc3OC(F)F)n2)CC1 [Example 177]
[S] O=C(Nc1cn(CC(=O)N2C[C@H]3CN(CC4CCC(F)(F)CC4)C[C@H]3C2)nc1-c1cc(Cl)ccc1OC(F)F)c1cnn2cccnc12 [Example 33]
[T] Nc1nn2cccnc2c1C(=O)Nc1cn(CC(=O)N2CC3CNCC3C2)nc1-c1cc(Cl)ccc1OC(F)F (centres unmarked) [Example 10]
Put the entries in order of Ki, starting with the largest number. To answer, arrange all of the labels according to the requested order.
Q, P, S, T, R
(Q: 1.46 nM, P: 0.81 nM, S: 0.49 nM, T: 0.32 nM, R: 0.09 nM)

[I] CN1CC[C@@H]2[C@H](CCN2C(=O)Cn2cc(NC(=O)c3cnn4cccnc34)c(-c3cc(Cl)ccc3OC(F)F)n2)C1 [Example 61]
[II] O=C(Nc1cn(CC(=O)N2CCC(NC(c3ccccc3)C(F)(F)F)CC2)nc1-c1cc(Cl)ccc1OC(F)F)c1cnn2cccnc12 (centres unmarked) [Example 132]
[III] CCN1CCN(C(=O)Cn2cc(NC(=O)c3c(N)nn4cccnc34)c(-c3cc(Cl)ccc3OC(F)F)n2)CC1 [Example 247]
Highest Ki first, then in falling order down to the smallest. Answer by writing out the labels in the requested order.
II, I, III
(II: 1.27 nM, I: 0.68 nM, III: 0.3 nM)

[A] N#CCCNC1CCC(=CCn2cc(NC(=O)c3cnn4cccnc34)c(-c3cc(Cl)ccc3OC(F)F)n2)CC1 (centres unmarked) [Example 421]
[B] CN(CCc1ccccc1)Cc1nc(-c2cc(Cl)ccc2OC(F)F)c(NC(=O)c2cnn3cccnc23)s1 [Example 261]
Please indicate which entry, A or B , has the lower recorded Ki value. Reply briefly: the label of your chosen item.
A
(A: 0.89 nM, B: 10.2 nM)

[a] CN(CC1OCCO1)C1CCN(C(=O)Cn2cc(NC(=O)c3cnn4cccnc34)c(-c3cc(Cl)ccc3OC(F)F)n2)CC1 [Example 433]
[b] Nc1nn2cccnc2c1C(=O)Nc1cn(C2CCN(CCCO)CC2)nc1-c1cc(Cl)ccc1OC(F)F [Example 176]
Field: entry with larger Ki (options a / b ). The response must carry the label of the picked entry.
a
(a: 1.16 nM, b: 0.12 nM)
